test: Metabolic stability in human liver microsomes assessed as metabolized compound measured after 60 mins; type: ADME, Microsome; settings: read-out: Activity
PROPERTY: metabolised at 1 h

Prompt: Using the record for "COc1ccc2c3c([nH]c2c1)[C@H](CC(C)C)N1C(=O)[C@H](C)NC(=O)[C@@H]1C3" , state its measured metabolised at 1 h.
Response: ~40%
